Experimental Endpoint: melting point

* CON1CCC2(CC1)NC(=O)C(c1c(C)cc(C)c(Cl)c1C)C2=O (stereo not shown) | > 200 °C
* COc1ccc(OC)c(C2C(=O)NC3(CCN(OC)CC3)C2=O)c1 (stereo not shown) | 194 to 196 °C
* CON1CCC2(CC1)NC(=O)C(c1ccc(Cl)c(Cl)c1)=C2OC(=O)N(C)CCC#N | 56 to 59 °C

Okay, next one:
I have this compound here, CON1CCC2(CC1)NC(=O)C(c1cc(C)ccc1C)=C2OS(=O)(=O)C(C)C , and I need its recorded melting point. 168 to 170 °C

---

Test system: Setaria faberi (SETFA)
Assay: Example B pre-emergence herbicidal activity, glasshouse pot test
Assay type: in vivo
Conditions: 312 h, first table (headed Post-Emergence, taken as pre-emergence), rate 250 g/ha, evaluated after 13 days, read-out: SETFA activity (100=total damage to plant; 0=no damage to plant)
Experimental Endpoint: pest or weed control at 250 g/ha (%)
State the answer as a number, implicitly in %.

- CCOC(=O)OC1=C(c2ccc(Br)cc2Cl)C(=O)NC12CCN(OC)CC2: 10
- CON1CCC2(CC1)NC(=O)C(c1ccc(Br)cc1C)=C2OC(=O)C(C)(C)C: 100
- CON1CCC2(CC1)NC(=O)C(c1ccc(Br)cc1Cl)=C2OC(=O)C(C)(C)C: 100
- CCOC(=O)OC1=C(c2cc(-c3ccc(Cl)cc3)c(C)cc2C)C(=O)NC12CCN(OC)CC2: 80
- CCOC(=O)OC1=C(c2c(C)cc(-c3ccc(Cl)cc3)cc2C)C(=O)NC12CCN(OC)CC2: 100
- CCOC(=O)OC1=C(c2cc(C3CC3)c(C)cc2C)C(=O)NC12CCN(OC)CC2: 60

Attention now shifts to the item below.
Give the measured pest or weed control at 250 g/ha of CON1CCC2(CC1)NC(=O)C(c1c(C)cc(-c3ccc(Cl)cc3)cc1C)C2=O (stereo not shown) . 100

// provenance: patent US8722578B2
